Target: 4-1BB on transfected NF-κB Jurkat cells (UniProt Q07011 24-255, limits assumed)
Sequence (Q07011 24-255 limits assumed): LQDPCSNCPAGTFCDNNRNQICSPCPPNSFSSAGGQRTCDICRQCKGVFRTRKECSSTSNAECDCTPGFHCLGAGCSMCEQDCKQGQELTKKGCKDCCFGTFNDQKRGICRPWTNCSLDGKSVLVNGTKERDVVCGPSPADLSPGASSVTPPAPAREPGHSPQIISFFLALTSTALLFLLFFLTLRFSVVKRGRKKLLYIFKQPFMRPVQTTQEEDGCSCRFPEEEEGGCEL
Assay: cell-based or functional assay
Each entry below carries its recorded Reporter/Expression ratio.
# output: bare number, no unit

Observe how each entry below is paired with its result.
binder	obs-value
1D2 (ligand, also called 4-1BBL variant 1D2 (phagemid clone, bacterial supernatant)) 4-1BBL variant: ACPWAVSGARASPGSAASPRLREGPELSPDDPAGLLDLRQGMFAQLVAQNVLLIDGPLSWYEDPGLAGVSLTGGLSYKEDTKELVVAKAGVYYVFFQLELRRVVAGTGSGSVSLALHLQPLRSAAGAAALALTVDLPPASSEARNSAFGFQGRLLHLSAGQRLGVHLHTEARARHALQLTQGATVLGLFRVTPEIPAGLPSPRSE	2150
4C2 (ligand, also called 4-1BBL variant 4C2 (phagemid clone, bacterial supernatant)) 4-1BBL variant: ACPWAVSGARASPGSAASPRLREGPELSPDDPAGLLDLRQGMFAQLVAQNVLLIDGPLSWYPDPGLAGVSLTGGLSYKEDTKELVVAKAGVYYVFFQLELRRVVAGRGSGSVSLALHLQPLRSAAGAAALALTVDLPPASSEARNSAFGFQGRLLHLSAGQRLGVHLHTEARARHAWQFTQGATVLGLFRVTPEIPAGLPSPRSE	2040
8B10 (ligand, also called 4-1BBL variant 8B10 (phagemid clone, bacterial supernatant)) 4-1BBL variant: ACPWAVSGARASPGSAASPRLREGPELSPDDPAGLLDLRQGMFAQLVAQNVLLIDGPLSWYTDPGLAGVSLTGGLSYKEDTKELVVAKAGVYYVFFQLELRRVVAGMGSGSVSLALHLQPLRSAAGAAALALTVDLPPASSEARNSAFGFQGRLLHLSAGQRLGVHLHTEARARHSWQLTQGATVLGLFRVTPEIPAGLPSPRSE	13300

We now examine a further binder.
(Q) Which value of Reporter/Expression ratio has been reported for 5D9 (ligand, also called 4-1BBL variant 5D9 (phagemid clone, bacterial supernatant)) 4-1BBL variant: ACPWAVSGARASPGSAASPRLREGPELSPDDPAGLLDLRQGMFAQLVAQNVLLIDGPLSFYSDPGLAGVSLTGGLSYKEDTKELVVAKAGVYYVFFQLELRRVVAGTGSGSVSLALHLQPLRSAAGAAALALTVDLPPASSEARNSAFGFQGRLLHLSAGQRLGVHLHTEARARHAWQMTQGATVLGLFRVTPEIPAGLPSPRSE in the records?
(A) 4240
